Target sequence: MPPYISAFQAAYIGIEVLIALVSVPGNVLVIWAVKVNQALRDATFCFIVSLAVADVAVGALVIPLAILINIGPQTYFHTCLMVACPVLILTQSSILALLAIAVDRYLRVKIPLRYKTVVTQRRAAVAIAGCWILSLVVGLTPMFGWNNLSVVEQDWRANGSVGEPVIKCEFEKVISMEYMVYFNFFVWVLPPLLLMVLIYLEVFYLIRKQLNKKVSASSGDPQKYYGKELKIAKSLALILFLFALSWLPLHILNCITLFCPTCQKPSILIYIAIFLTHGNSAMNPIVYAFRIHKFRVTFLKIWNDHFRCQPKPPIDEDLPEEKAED
result-type: Ki (nM)

Please review the following examples before continuing.
compound=Nc1nc(N/N=C/C=C(c2ccccc2)c2ccccc2)nc2c1ncn2[C@@H]1O[C@H](CO)[C@@H](O)[C@H]1O data_value=64
compound="Cc1ccc(/C=N/Nc2nc(N)c3ncn(C4O[C@H](CO)[C@@H](O)[C@H]4O)c3n2)cc1 (some centres undefined)" data_value=1770
compound=COc1ccc(/C=C/C=N/Nc2nc(N)c3ncn([C@@H]4O[C@H](CO)[C@@H](O)[C@H]4O)c3n2)cc1 data_value=425
compound=Nc1nc(N/N=C/C=C/c2ccco2)nc2c1ncn2[C@@H]1O[C@H](CO)[C@@H](O)[C@H]1O data_value=1670
compound=Nc1nc(N/N=C/c2ccco2)nc2c1ncn2[C@@H]1O[C@H](CO)[C@@H](O)[C@H]1O data_value=1850

P. CN(C)c1ccc(/C=C/C=N/Nc2nc(N)c3ncn([C@@H]4O[C@H](CO)[C@@H](O)[C@H]4O)c3n2)cc1
Q. COc1cc(/C=C/C=N/Nc2nc(N)c3ncn([C@@H]4O[C@H](CO)[C@@H](O)[C@H]4O)c3n2)ccc1O
Lower value for measured Ki? Options: P , Q // respond with label for picked entry P

a. Nc1nc(N/N=C/C=C/c2ccccc2[N+](=O)[O-])nc2c1ncn2[C@@H]1O[C@H](CO)[C@@H](O)[C@H]1O
b. COc1ccccc1/C=C/C=N/Nc1nc(N)c2ncn([C@@H]3O[C@H](CO)[C@@H](O)[C@H]3O)c2n1
Lower value for measured Ki? Options: a , b // respond with label for picked entry b
